This collection of values is drawn from patent US8003675B2.

Item-by-item account of Protective value
Tested on: Colletotrichum orbiculare
EXPERIMENTAL PROTOCOL: Test for preventive effect for cucumber anthracnose
Assay type: in vivo
CONDITION LABEL: cucumber (Sagamihanjiro), soil drench 10 ml at 1 ppm, inoculated 7 days later, lesions counted 7 days later
READOUT: Protective value (%)

In [3]: df
Out[3]:
                                   molecule           readout  quantity_unit  quantitative_result
0                     CC(=O)OCc1snc(Cl)c1Cl  Protective value              %                 86.9
1              O=C(OCc1snc(Cl)c1Cl)c1ccccc1  Protective value              %                 89.1
2  Cc1cc(COC(=O)c2cc(C)ns2)sn1 [Comparative compound, reference compound]  Protective value              %                 73.3
3               CC=CC=CC(=O)OCc1snc(Cl)c1Cl  Protective value              %                 89.1
